- TEST_SETTINGS: 298.15 K; 101.33 kPa; Liquid
PROPERTY: mass density (kg/m3)

* CCCCOC(=O)CC [butyl propanoate] | 870.88
* CC(C)O | 780.75
* CCO | 786.47
* CCC(C)=O | 799.62

----------
- ASSAY_PROTOCOL: refractive index (Na D-line) (dimensionless)
- TEST_SETTINGS: 298.15 K; 101.33 kPa; Liquid; Standard Abbe refractometry
PROPERTY: refractive index

• CCCCOC(=O)CC [butyl propanoate] = 1.3992
• CCO [ethanol] = 1.3594
• CC(C)O [propan-2-ol] = 1.3754
• CCC(C)=O [butanone] = 1.3761
